Assay: recombinant barcode read abundance after kanamycin selection (control-corrected) (log10(CPM+1)); higher = more efficient recombination; sequences stand for … in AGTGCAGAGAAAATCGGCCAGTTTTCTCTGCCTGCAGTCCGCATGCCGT…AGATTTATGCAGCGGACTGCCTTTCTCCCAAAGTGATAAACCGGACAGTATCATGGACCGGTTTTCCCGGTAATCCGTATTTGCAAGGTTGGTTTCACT; site = the 11-nt target;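 also: IS621 recombinase and bridge RNA in Escherichia coli cells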
Experimental readout: recombinant barcode read abundance (log10)

Q: Give a short answer stating reported recombinant barcode read abundance (log10) for CTTGGACCTTGGGTTCTAACCTGTTGCAG (site CTTGGACCTCT) .
Ans: 2.55

Q: Give a short answer stating reported recombinant barcode read abundance (log10) for GTCAATCCTTGGGTTCTAACCTGTTGCTG (site GTCAACCCTCA) .
Ans: 0.288

Q: Give a short answer stating reported recombinant barcode read abundance (log10) for GCCGAGTCTTGGGTTCTAACCTGTTGCTC (site GCCGAGTCTCA) .
Ans: 0.0833

Q: Give a short answer stating reported recombinant barcode read abundance (log10) for TGGACTTCTTGGGTTCTAACCTGTTGCTG (site TGGACTTCTGA) .
Ans: 0.215

Q: Give a short answer stating reported recombinant barcode read abundance (log10) for GGGGACTCTTGGGTTCTAACCTGTTGCAC (site GGGGAATCTAT) .
Ans: 0.0994

----------
Assay: recombinant barcode read abundance after kanamycin selection (control-corrected) (log10(CPM+1)); higher = more efficient recombination; sequences stand for … in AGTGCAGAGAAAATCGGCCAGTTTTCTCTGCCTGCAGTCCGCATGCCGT…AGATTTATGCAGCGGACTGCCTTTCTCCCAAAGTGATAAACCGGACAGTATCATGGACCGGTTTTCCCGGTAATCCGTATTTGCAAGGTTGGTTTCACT; site = the 11-nt target
Please go through the items and note down their recombinant barcode read abundance (log10).
Please reply with the number alone, leaving off any unit.

Q: Give a short answer stating reported recombinant barcode read abundance (log10) for TGTCGGACTTGGGTTCTAACCTGTTGCAC (site TGTCGGACTTT) .
Ans: 0.0148

Q: Give a short answer stating reported recombinant barcode read abundance (log10) for GCCCCGCCTTGGGTTCTAACCTGTTGCAG (site GCCGCGCCTCT) .
Ans: 0.00897

Q: Give a short answer stating reported recombinant barcode read abundance (log10) for GATGCTACTTGGGTTCTAACCTGTTGCGG (site GAAGCTACTAC) .
Ans: 0.128

Q: Give a short answer stating reported recombinant barcode read abundance (log10) for AAACTAACTTGGGTTCTAACCTGTTGCCT (site ACACTAACTAG) .
Ans: 0.167

Q: Give a short answer stating reported recombinant barcode read abundance (log10) for GAAGCATCTTGGGTTCTAACCTGTTGCCT (site GAAGCATCTAG) .
Ans: 1.54

Q: Give a short answer stating reported recombinant barcode read abundance (log10) for GAGGACTCTTGGGTTCTAACCTGTTGCCT (site GAGGACTCTCG) .
Ans: 0.0247

Q: Give a short answer stating reported recombinant barcode read abundance (log10) for AACTAATCTTGGGTTCTAACCTGTTGCCT (site AACTCATCTAG) .
Ans: 0.0864

Q: Give a short answer stating reported recombinant barcode read abundance (log10) for GAACCTACTTGGGTTCTAACCTGTTGCCG (site GAGCCTACTAG) .
Ans: 0.172

Q: Give a short answer stating reported recombinant barcode read abundance (log10) for GTCACCGCTTGGGTTCTAACCTGTTGCCT (site GTAACCGCTAG) .
Ans: 0.409

Q: Give a short answer stating reported recombinant barcode read abundance (log10) for GGTCAAACTTGGGTTCTAACCTGTTGCCT (site GGTCTAACTAG) .
Ans: 0.0309

----------
Please go through the items and note down their recombinant barcode read abundance (log10).
Assay: recombinant barcode read abundance after kanamycin selection (control-corrected) (log10(CPM+1)); higher = more efficient recombination; sequences stand for … in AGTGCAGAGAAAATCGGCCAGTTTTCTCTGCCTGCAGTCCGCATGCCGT…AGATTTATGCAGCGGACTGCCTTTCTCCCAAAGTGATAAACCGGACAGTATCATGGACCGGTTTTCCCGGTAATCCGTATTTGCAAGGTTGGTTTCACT; site = the 11-nt target
Please reply with the number alone, leaving off any unit.

Q: Give a short answer stating reported recombinant barcode read abundance (log10) for TTGCGGCCTTGGGTTCTAACCTGTTGCAG (site TTGCGGCCTCT) .
Ans: 1.78

Q: Give a short answer stating reported recombinant barcode read abundance (log10) for TGATCTACTTGGGTTCTAACCTGTTGCTT (site TGCTCTACTAA) .
Ans: 0.0846

Q: Give a short answer stating reported recombinant barcode read abundance (log10) for CCTACTCCTTGGGTTCTAACCTGTTGCAG (site CCTACTCCTCT) .
Ans: 0.0147

Q: Give a short answer stating reported recombinant barcode read abundance (log10) for CACTATCCTTGGGTTCTAACCTGTTGCGG (site CACTATCCTCC) .
Ans: 1.5

Q: Give a short answer stating reported recombinant barcode read abundance (log10) for TGTTAGCCTTGGGTTCTAACCTGTTGCCA (site GGTTAGCCTAG) .
Ans: 0.0168

----------
Test: recombinant barcode read abundance after kanamycin selection (control-corrected) (log10(CPM+1)); higher = more efficient recombination; sequences stand for … in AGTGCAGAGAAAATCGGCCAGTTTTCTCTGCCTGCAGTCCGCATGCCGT…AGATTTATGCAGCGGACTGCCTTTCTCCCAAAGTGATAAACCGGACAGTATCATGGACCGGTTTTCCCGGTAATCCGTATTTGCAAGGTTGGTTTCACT; site = the 11-nt target
Everything with recombinant barcode read abundance (log10) lower than 0.2 is condition not met; everything else, including exactly 0.2, is condition met.

Q: recombinant barcode read abundance (log10) >= 0.2 for AGCTTACCTTGGGTTCTAACCTGTTGCCT (site CGCTTACCTAG) ?
Ans: condition met

Q: recombinant barcode read abundance (log10) >= 0.2 for CCTACATCTTGGGTTCTAACCTGTTGCAT (site CCTACATCTAT) ?
Ans: condition met

Q: recombinant barcode read abundance (log10) >= 0.2 for TACCTGTCTTGGGTTCTAACCTGTTGCTT (site TACCGGTCTAA) ?
Ans: condition met

Q: recombinant barcode read abundance (log10) >= 0.2 for GATCGATCTTGGGTTCTAACCTGTTGCCT (site GATCGATCTAC) ?
Ans: condition not met

Q: recombinant barcode read abundance (log10) >= 0.2 for TACCTGTCTTGGGTTCTAACCTGTTGCTT (site TACCAGTCTAA) ?
Ans: condition not met

Q: recombinant barcode read abundance (log10) >= 0.2 for GCTCAGCCTTGGGTTCTAACCTGTTGCCT (site GCTCAGGCTAG) ?
Ans: condition not met

Q: recombinant barcode read abundance (log10) >= 0.2 for GAAGGGCCTTGGGTTCTAACCTGTTGCCT (site GAAGTGCCTAG) ?
Ans: condition not met

Q: recombinant barcode read abundance (log10) >= 0.2 for CTAGACTCTTGGGTTCTAACCTGTTGCAT (site CTAGACTCTTT) ?
Ans: condition met

Q: recombinant barcode read abundance (log10) >= 0.2 for AGTCCTACTTGGGTTCTAACCTGTTGCAG (site AGTCCTACTCT) ?
Ans: condition met

Q: recombinant barcode read abundance (log10) >= 0.2 for ATGCGAGCTTGGGTTCTAACCTGTTGCTG (site ATGCGAGCTCC) ?
Ans: condition met
